test system: NCI-H522 lung; assay: NCI tumour cell line growth inhibition, 48 h; in the data active means GI50 below about 0.43 µM; inactive means the rest
Labels: yes for active, no for inactive

COMPOUND: CN(c1ccc(Cl)c(Cl)c1)c1cnc2cc(N)cc(N)c2n1
CATEGORY: no
--
COMPOUND: COc1cc(Nc2cc(O)c3c(=O)cc(-c4ccccc4)oc3c2)cc(OC)c1
CATEGORY: yes
--
COMPOUND: C=C1C(O)C2C(=C(CC(C)C)C13CC3)C(=O)C(C)(C)C2O (stereo unspecified)
CATEGORY: no
--
COMPOUND: O=C1NC(=O)/C(=C/c2ccc3ncccc3c2)S1
CATEGORY: no
--
COMPOUND: CCCCN1C=CCN(CCCC)C1
CATEGORY: no
--
COMPOUND: CSc1ccc(C2=NN(c3ccccc3)C(c3ccc(-c4cc(Cl)c(Cl)cc4Cl)o3)C2)cc1 (stereo unspecified)
CATEGORY: no

Where do the numbers come from? From PubChem BioAssay (NCI).
